- Measurement Target: Carbonic anhydrase 1 (Homo sapiens)
- Sequence (P00915 whole entry): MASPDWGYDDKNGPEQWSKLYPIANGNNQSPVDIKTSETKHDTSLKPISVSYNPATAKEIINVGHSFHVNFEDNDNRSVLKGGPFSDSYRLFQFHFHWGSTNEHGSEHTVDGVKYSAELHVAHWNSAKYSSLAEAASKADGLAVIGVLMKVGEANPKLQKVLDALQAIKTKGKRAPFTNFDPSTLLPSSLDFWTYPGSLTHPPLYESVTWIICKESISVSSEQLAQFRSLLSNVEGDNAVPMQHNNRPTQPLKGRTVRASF
- Assay Procedure: Inhibition of human carbonic anhydrase I assessed as inhibition constant incubated for 15 to 360 mins by stopped-flow CO2 hydration assay
Measurement Name: Ki (nM)

a = OB1OCc2ccc(NC(=S)NCc3ccccc3)cc21
b = OB1OCc2ccc(NC(=S)Nc3ccccc3)cc21
Could you point out whether the larger Ki belongs to a or to b ? Your answer should be the label attached to the chosen record. b
(b: 548 nM, a: 380 nM)

----------
- Measurement Target: UniProt:P00918
- Assay Procedure: Inhibition of human carbonic anhydrase II assessed as inhibition constant incubated for 15 to 360 mins by stopped-flow CO2 hydration assay
Measurement Name: Ki (nM)
Provide only the numeric value, understood in nM.

Value of Ki reported for the compound OB1OCc2ccc(NC(=S)Nc3ccccc3)cc21 is 1150

----------
- Measurement Target: UniProt P00918
- Assay Procedure: Inhibition of human carbonic anhydrase II assessed as inhibition constant incubated for 15 mins by stopped-flow carbon dioxide hydration assay
Measurement Name: Ki (nM)

{"columns": ["Compound", "Unit Descriptor", "Reading"],
 "data": [
  ["OB1OCCc2ccccc21 [BENZOXABORIN]", "nM", 1950],
  ["O=C(Nc1ccccc1)Nc1ccc2c(c1)B(O)OCC2", "nM", 262],
  ["Nc1ccc2c(c1)B(O)OCC2", "nM", 2920],
  ["O=C(Nc1ccc(F)cc1)Nc1ccc2c(c1)B(O)OCC2", "nM", 85.9],
  ["O=C(NCc1ccccc1)Nc1ccc2c(c1)B(O)OCC2", "nM", 112],
  ["OB1OCCc2ccc(NC(=S)Nc3ccc(F)cc3)cc21", "nM", 434],
  ["OB1OCCc2ccc(NC(=S)NCc3ccccc3)cc21", "nM", 41.7],
  ["OB1OCCc2ccc(NC(=S)Nc3ccccc3)cc21", "nM", 295]
]}

a = O=[N+]([O-])c1ccc(NC(=S)Nc2ccc3c(c2)B(O)OCC3)cc1
b = OB1OCCc2ccc(NC(=S)Nc3ccc(C(F)(F)F)cc3)cc21
Looking at a and b , which one comes out lower in Ki terms? Your answer should be the label attached to the chosen record. b
(b: 44.9 nM, a: 452 nM)

a = O=C(Nc1ccc(C(F)(F)F)cc1)Nc1ccc2c(c1)B(O)OCC2
b = O=[N+]([O-])c1ccc2c(c1)B(O)OCC2
Could you point out whether the larger Ki belongs to a or to b ? Your answer should be the label attached to the chosen record. b

----------
- Measurement Target: Carbonic anhydrase 9 (Homo sapiens)
- Assay Procedure: Inhibition of human carbonic anhydrase IX catalytic domain assessed as inhibition constant incubated for 15 to 360 mins by stopped-flow CO2 hydration assay
pKi: −log10 of the molar value.
Measurement Name: pKi

{"columns": ["Smiles Record", "Reading"],
 "data": [
  ["OB1OCc2ccc(NC(=S)Nc3ccc(F)cc3)cc21", 6.47],
  ["O=C(Nc1ccc(C(F)(F)F)cc1)Nc1ccc2c(c1)B(O)OC2", 6.07],
  ["O=C(Nc1ccccc1)Nc1ccc2c(c1)B(O)OC2", 5.97]
]}

P = O=C(Nc1ccc(F)cc1)Nc1ccc2c(c1)B(O)OC2
Q = OB1OCc2ccc(NC(=S)Nc3ccccc3)cc21
R = O=[N+]([O-])c1ccc2c(c1)B(O)OC2
Arrange the 3 molecules from largest to smallest pKi. Arrange the labels as the request states and list them. R, Q, P
